- method.description: in vitro validation of HepG2 hepatocytotoxicity (CC50)
- Type: cell-based
- settings: human, HepG2 cells, top 10 compounds ranked by SG-ATT prediction, classification threshold 100 μM
observed.property: CC50 (µM)
I only need the number, in µM, no unit after it.

Using the record for CC(C)C(CO)NC(=O)[C@H](Cc1ccc(OCCN(C)C)cc1)NC(=O)c1ccccc1 (some centres unmarked) , state its measured CC50.
89.1

====

- method.description: in vitro validation of HepG2 hepatocytotoxicity (CC50)
- Type: cell-based
- settings: human, top 10 compounds ranked by SG-ATT prediction, classification threshold 100 μM
observed.property: CC50 (µM)
Numbers only here, please. The scale is µM.

Using known records, supply CC50 for COc1ccccc1/C(Br)=C(/NC(=O)c1ccc([N+](=O)[O-])cc1)C(=O)N[C@@H](CO)CC(C)C
86.6

Now take the following compound into account.
For the compound O=C(N[C@H](CO)Cc1ccccc1)/C(=C\c1ccc(Br)cc1)NC(=O)c1ccccc1 , report CC50.
72.7
